Where do these numbers come from? They come from patent US20200087416A1.

test.system: T1, human PCSK9 (PCSK9 antigen, SEQ ID NO. 53) (human, UniProt A8T644 31-152; Q8NBP7 153-692, Biotin-labelled on amines in the MSD-SET and sorting experiments; positions not given.)
T1 construct: Biotin-labelled in MSD-SET; also called PCSK9-WT; PCSK9 protein
assay.name: MSD-SET, Fab with biotin-PCSK9 in solution, IgG on plate, pH 7.4
Reported pKd values for a set of binders
Notebook: values listed as pKd are -log10 of the concentration (mol/L).

Sample answers from the record:
[
  {
    "binder": "ADI-10090 Fab (Fab, V domains shown) VH: QLQLQESGPGLVKPSETLSLTCTVSGGSIWSSSYYWTWIRQPPGKGLEWIGSINYRGSTYYNPSLKSRVTISVDTSKNQFSLKLSSVTAADTAVYYCARENSGVVPAAGPNWFDPWGQGTLVTVSS VL: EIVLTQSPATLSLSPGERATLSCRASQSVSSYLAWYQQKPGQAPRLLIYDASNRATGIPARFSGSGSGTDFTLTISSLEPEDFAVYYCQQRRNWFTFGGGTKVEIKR",
    "pKd": 10.77
  },
  {
    "binder": "ADI-10085 Fab (Fab, V domains shown) VH: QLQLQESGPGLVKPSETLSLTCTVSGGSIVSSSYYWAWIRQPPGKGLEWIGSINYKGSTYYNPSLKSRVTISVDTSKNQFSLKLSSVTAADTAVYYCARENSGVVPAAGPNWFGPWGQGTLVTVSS VL: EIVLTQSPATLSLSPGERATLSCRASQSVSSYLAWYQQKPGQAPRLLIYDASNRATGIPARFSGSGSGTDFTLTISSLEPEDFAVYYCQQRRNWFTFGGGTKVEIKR",
    "pKd": 11.38
  }
]

# evaluate next
Request: Determine from records and report pKd for ADI-09113 Fab (Fab, V domains shown) VH: QLQLQESGPGLVKPSETLSLTCTVSGGSVSSSSYYWGWIRQPPGKGLEWIGSAYYSGSTYYNPSLKSRVTISVDTSKNQFSLKLSSVTAADTAVYYCARENSGVVPAAGPNWFDPWGQGTLVTVSS VL: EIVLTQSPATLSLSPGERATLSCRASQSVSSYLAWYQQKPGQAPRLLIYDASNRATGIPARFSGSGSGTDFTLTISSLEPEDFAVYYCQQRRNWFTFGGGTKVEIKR
Result: 9.77
